Test system: Balb/c splenocytes (resting lymphocytes)
experiment: Lymphocyte viability (LcV) assay
Assay type: cell-based, murine
assay.conditions: unstimulated Balb/c splenocytes, MTT
Numbered stars: 1 amine (or outer) side, 2 acyl side, 3 side chain; on linkers, the order of the positions; unused ones are H or OH. Bridge positions count the residues as written; N and C are the ends. Square brackets hold non-standard residues; d marks the D form. Peptide text beside a SMILES is read from it. * marks the point of attachment. X1 = CC[C@H](C)[C@@H](N[*:1])[C@@H](O)CC(=O)O[C@H](C(=O)[C@H](C)C(=O)[*:2])C(C)C; X3 = CC[C@H](C)[C@H](N[*:1])[C@@H](O)CC(=O)O[C@H](C(=O)[C@H](C)C(=O)[*:2])C(C)C; NMeY = CN[C@@H](Cc1ccc(O)cc1)C(=O)O; dNMeL = CN[C@H](CC(C)C)C(=O)O; Octanoyl = CCCCCCCC(=O)*; Cbz = O=C(OCc1ccccc1)*
Listed here are compounds together with their documented cytoxicity to lymphocytes LcV, LC50.

compound: CCCCCCCC(=O)N(C)[C@H](CC(C)C)C(=O)N[C@@H]1C(=O)N[C@H]([C@@H](C)CC)[C@@H](O)CC(=O)O[C@@H](C(C)C)C(=O)[C@H](C)C(=O)N[C@@H](CC(C)C)C(=O)N2CCC[C@H]2C(=O)N(C)[C@@H](Cc2ccc(OC)cc2)C(=O)O[C@@H]1C [Compound 23, N^α -Octanoyldidemnin A] (Octanoyl-[dNMeL]T[X1]LP[NMeY](Me); ester 2-C)
cytoxicity to lymphocytes LcV, LC50: > 9.35 µM
//
compound: CC[C@H](C)[C@@H]1NC(=O)[C@@H](NC(=O)[C@@H](CC(C)C)N(C)C(=O)OCc2ccccc2)[C@@H](C)OC(=O)[C@H](Cc2ccc(OC)cc2)N(C)C(=O)[C@@H]2CCCN2C(=O)[C@H](CC(C)C)NC(=O)[C@@H](C)C(=O)[C@H](C(C)C)OC(=O)C[C@@H]1O [Compound 6, Z-[(3S,4S,5S)-Ist^2]Didemnin A] (Cbz-[dNMeL]T[X3]LP[NMeY](Me); ester 2-C)
cytoxicity to lymphocytes LcV, LC50: > 9.3 µM
//
compound: CC[C@H](C)[C@H]1NC(=O)[C@@H](NC(=O)[C@@H](CC(C)C)N(C)C(=O)[C@@H](N)CC(C)C)[C@@H](C)OC(=O)[C@H](Cc2ccc(OC)cc2)N(C)C(=O)[C@@H]2CCCN2C(=O)[C@H](CC(C)C)NC(=O)[C@@H](C)C(=O)[C@H](C(C)C)OC(=O)C[C@@H]1O [Compound 27, N-(L-Leu)Didemnin A] (H-L[dNMeL]T[X1]LP[NMeY](Me); ester 3-C)
cytoxicity to lymphocytes LcV, LC50: > 9.50 µM
